Known pKd of a selection of molecules
Biological target: High affinity nerve growth factor receptor (Homo sapiens)
Sequence (P04629 whole entry, the tested form may be a part): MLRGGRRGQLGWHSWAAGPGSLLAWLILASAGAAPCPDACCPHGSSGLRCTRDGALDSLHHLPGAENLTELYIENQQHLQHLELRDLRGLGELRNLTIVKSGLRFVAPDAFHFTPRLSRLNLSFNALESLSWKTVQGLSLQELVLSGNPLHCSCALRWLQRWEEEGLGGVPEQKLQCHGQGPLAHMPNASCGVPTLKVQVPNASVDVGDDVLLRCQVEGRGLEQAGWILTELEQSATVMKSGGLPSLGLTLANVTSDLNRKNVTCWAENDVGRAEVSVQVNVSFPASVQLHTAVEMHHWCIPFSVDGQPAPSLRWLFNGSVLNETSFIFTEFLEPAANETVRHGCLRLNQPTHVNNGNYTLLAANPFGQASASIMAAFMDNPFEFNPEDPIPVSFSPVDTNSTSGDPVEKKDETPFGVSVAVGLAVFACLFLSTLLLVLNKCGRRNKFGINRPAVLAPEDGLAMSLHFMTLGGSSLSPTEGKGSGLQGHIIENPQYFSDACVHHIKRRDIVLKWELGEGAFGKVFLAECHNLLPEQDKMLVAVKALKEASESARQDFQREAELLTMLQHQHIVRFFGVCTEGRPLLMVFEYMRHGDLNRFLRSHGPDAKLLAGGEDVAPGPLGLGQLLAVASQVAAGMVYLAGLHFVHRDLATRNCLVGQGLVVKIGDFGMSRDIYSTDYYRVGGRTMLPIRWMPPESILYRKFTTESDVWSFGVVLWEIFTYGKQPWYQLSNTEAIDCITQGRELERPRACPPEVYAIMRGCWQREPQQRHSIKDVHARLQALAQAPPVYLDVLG
Experiment: Binding affinity to recombinant full-length N-terminal His-FLAG-GST-tagged NTRK1 (unknown origin) (436 to 790 residues) expressed in baculovirus infected Sf9 insect cells incubated for 1 hr by TR-FRET assay
pKd: −log10 of the molar value.

Molecular string	pKd
CO[C@@H]1[C@H](NCCOCCOCCOCCNC(=O)CCC2=[N+]3C(=Cc4c(C)cc(C)n4[B-]3(F)F)C=C2)C[C@H]2O[C@]1(C)n1c3ccccc3c3c4c(c5c6ccccc6n2c5c31)C(=O)NC4	7.46
CO[C@@H]1[C@H](N(C)CCOCCOCCOCCNC(=O)CCC2=[N+]3C(=Cc4c(C)cc(C)n4[B-]3(F)F)C=C2)C[C@H]2O[C@]1(C)n1c3ccccc3c3c4c(c5c6ccccc6n2c5c31)C(=O)NC4	7.60
